biological target: rat mGlu5 (Rattus norvegicus (Rat)); assay: mGlu5 Ca2+ flux assay; format: cell-based; details: ratio of rat mGlu5 EC50 or IC50 to rat mGlu3 IC50
I'd be grateful if you could share measured Fold selectivity (mGlu3 vs. mGlu5) for these entries.

Worked set:
- given.smiles: "COc1cccc(N2CCn3nc(CNc4ccc(OC(F)F)cc4F)cc3C2=O)c1"
  experimental.system: "rat mGlu5 (Rattus norvegicus (Rat))"
  Fold selectivity (mGlu3 vs. mGlu5): ">34"
- given.smiles: "Cc1ccc(N2CCn3nc(CNc4ccc(OC(F)F)cc4F)cc3C2=O)nc1"
  experimental.system: "rat mGlu5 (Rattus norvegicus (Rat))"
  Fold selectivity (mGlu3 vs. mGlu5): ">17"
- given.smiles: "C[C@@H]1CN(c2ccc(F)cc2)C(=O)c2cc(CNc3ccc(OC(F)F)cc3)nn21"
  experimental.system: "rat mGlu5 (Rattus norvegicus (Rat))"
  Fold selectivity (mGlu3 vs. mGlu5): ">22"
- given.smiles: "COc1cc(F)cc(N2CCn3nc(CNc4ccc(OC(F)F)cc4F)cc3C2=O)c1"
  experimental.system: "rat mGlu5 (Rattus norvegicus (Rat))"
  Fold selectivity (mGlu3 vs. mGlu5): ">23"
- given.smiles: "O=C1c2cc(CNc3cc(F)ccc3F)nn2CCN1c1ccc(F)cc1"
  experimental.system: "rat mGlu5 (Rattus norvegicus (Rat))"
  Fold selectivity (mGlu3 vs. mGlu5): 3.23

Okay, here is my list. What is Fold selectivity (mGlu3 vs. mGlu5) for each of these?
1. O=C1c2cc(CNc3ccccc3)nn2CCN1c1ccc(F)cc1
2. CC(C)c1ccc(NCc2cc3n(n2)CCN(c2ccc(F)cc2)C3=O)cc1

1.55
>3

###

target: rat mGlu3 (Rattus norvegicus (Rat)); assay: mGlu3 Ca2+ flux assay; type: cell-based; details: amplitude of response at 30 μM test compound as % of maximal response to glutamate; read-out: rat mGlu3 Glu max (%)
Sequence (P31422 23-879): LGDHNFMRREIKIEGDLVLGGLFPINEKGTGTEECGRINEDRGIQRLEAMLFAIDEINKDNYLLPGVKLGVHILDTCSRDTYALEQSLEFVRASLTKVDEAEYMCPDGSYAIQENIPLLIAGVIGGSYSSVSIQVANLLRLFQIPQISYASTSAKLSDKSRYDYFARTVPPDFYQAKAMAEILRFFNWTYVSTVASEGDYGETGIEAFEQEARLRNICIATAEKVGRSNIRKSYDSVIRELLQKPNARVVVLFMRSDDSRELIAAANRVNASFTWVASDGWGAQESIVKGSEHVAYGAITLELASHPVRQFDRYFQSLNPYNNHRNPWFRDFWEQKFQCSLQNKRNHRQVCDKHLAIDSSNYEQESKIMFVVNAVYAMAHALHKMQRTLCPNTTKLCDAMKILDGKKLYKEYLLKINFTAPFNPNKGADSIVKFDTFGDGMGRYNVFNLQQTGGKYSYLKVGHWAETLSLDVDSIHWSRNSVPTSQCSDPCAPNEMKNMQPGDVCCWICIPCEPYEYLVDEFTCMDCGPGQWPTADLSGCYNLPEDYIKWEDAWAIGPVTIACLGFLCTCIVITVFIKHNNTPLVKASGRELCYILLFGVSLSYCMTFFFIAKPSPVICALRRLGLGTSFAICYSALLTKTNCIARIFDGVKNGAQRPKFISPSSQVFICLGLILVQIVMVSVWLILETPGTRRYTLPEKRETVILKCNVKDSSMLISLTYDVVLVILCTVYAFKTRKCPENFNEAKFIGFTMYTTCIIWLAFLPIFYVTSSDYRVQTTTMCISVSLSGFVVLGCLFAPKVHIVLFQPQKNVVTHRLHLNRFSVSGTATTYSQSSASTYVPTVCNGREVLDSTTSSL
I'd be grateful if you could share measured remaining activity at 30 µM for these entries.
Give bare numbers, in %.

Worked set:
- given.smiles: "COc1ccc(N(C)Cc2cc3n(n2)CCN(c2ccc(Cl)cc2F)C3=O)cc1"
  experimental.system: "rat mGlu3 (Rattus norvegicus (Rat))"
  units.symbol: "%"
  remaining activity at 30 µM: 1.47
- given.smiles: "Cc1ccccc1NCc1cc2n(n1)[C@@H](C)CN(c1ccc(F)cc1)C2=O"
  experimental.system: "rat mGlu3 (Rattus norvegicus (Rat))"
  units.symbol: "%"
  remaining activity at 30 µM: 1.32
- given.smiles: "Cc1cccc(NCc2cc3n(n2)CCN(c2ccc(F)cc2)C3=O)n1"
  experimental.system: "rat mGlu3 (Rattus norvegicus (Rat))"
  units.symbol: "%"
  remaining activity at 30 µM: -0.19

Okay, here is my list. What is remaining activity at 30 µM for each of these?
1. O=C1c2cc(CNc3cccc(OC(F)F)c3)nn2CCN1c1ccc(F)cc1
2. C[C@H]1CN(c2ccc(F)cc2)C(=O)c2cc(CNc3ccc(CC#N)cc3)nn21
3. COc1ccc(N(C)Cc2cc3n(n2)CCN(c2ccc(F)cc2)C3=O)cc1
4. CS(=O)(=O)c1ccc(NCc2cc3n(n2)CCN(c2ccc(F)cc2)C3=O)cc1
5. COc1cccc(N2CCn3nc(CNc4ccc(OC(F)F)cc4F)cc3C2=O)c1
6. COc1ccc(N(C)Cc2cc3n(n2)CCN(c2cc(F)cc(OC)c2)C3=O)cc1
7. O=C1c2cc(CNc3ccccc3F)nn2CCN1c1ccc(F)cc1
8. Cc1cccc(NCc2cc3n(n2)CCN(c2ccc(F)cc2)C3=O)c1

[1.31, 1.96, 1.39, 66.9, 1.5, 1.5, 1.73, 2.85]

###

target: rat mGlu5 (Rattus norvegicus (Rat)); test: mGlu5 Ca2+ flux assay; type: cell-based; settings: ratio of rat mGlu5 EC50 or IC50 to rat mGlu3 IC50
I'd be grateful if you could share measured Fold selectivity (mGlu3 vs. mGlu5) for these entries.

Okay, here is my list. What is Fold selectivity (mGlu3 vs. mGlu5) for each of these?
1. O=C1c2cc(CNc3c(F)cc(F)cc3F)nn2CCN1c1ccc(F)cc1 [Compound 33]
2. COc1ccc(N(C)Cc2cc3n(n2)CCN(c2c(F)cccc2F)C3=O)cc1 [Compound 110]
3. C[C@@H]1CN(c2ccc(F)cc2)C(=O)c2cc(CNc3c(F)cc(F)cc3F)nn21 [Compound 79]
4. O=C1c2cc(CNc3cccc(OC(F)F)c3)nn2CCN1c1ccc(F)cc1 [Compound 12]
5. O=C1c2cc(CNc3ccc(OC(F)F)cc3F)nn2CCN1c1ccc(Cl)cn1 [Compound 148]
6. O=C1c2cc(CNc3ccc(OC(F)F)cc3F)nn2CCN1c1ccc(F)cc1F [Compound 141]
7. COc1ccc(N(C)Cc2cc3n(n2)CCN(c2ccc(F)cc2)C3=O)cc1 [Compound 92]

1: 0.87; 2: >18; 3: >7.8; 4: 14.51; 5: >32; 6: >42; 7: >30

Okay, here is my list. What is Fold selectivity (mGlu3 vs. mGlu5) for each of these?
1. Cc1ccccc1NCc1cc2n(n1)CCN(c1ccc(F)cc1)C2=O [Compound 4]
2. COc1cccc(NCc2cc3n(n2)[C@@H](C)CN(c2ccc(F)cc2)C3=O)c1 [Compound 53]
3. CS(=O)(=O)c1ccc(NCc2cc3n(n2)CCN(c2ccc(F)cc2)C3=O)cc1 [Compound 25]
4. O=C1c2cc(CNc3ccc(OC(F)(F)F)cc3)nn2CCN1c1ccc(F)cc1 [Compound 21]
5. O=C1c2cc(CNc3ccc(OC(F)F)cc3)nn2CCN1c1ccc(F)cc1 [Compound 20]
6. CCN(Cc1cc2n(n1)CCN(c1ccc(F)c(F)c1)C2=O)c1ccc(OC)cc1 [Compound 168]
7. COc1ccc(N(C)Cc2cc3n(n2)CCN(c2cccc(Cl)c2F)C3=O)cc1 [Compound 135]

[">4.1", ">3.0", ">3", ">3", ">42", ">14", ">24"]

###

target: rat mGlu5 (Rattus norvegicus (Rat)); experiment: mGlu5 Ca2+ flux assay; format: cell-based; details: read-out: rat mGlu5 EC50 or IC50
pEC50: −log10 of the molar value.
I'd be grateful if you could share measured pEC50 for these entries.

- given.smiles: "COc1ccc(N(C)Cc2cc3n(n2)CCN(c2cc(Cl)cc(OC)c2)C3=O)cc1"
  experimental.system: "rat mGlu5 (Rattus norvegicus (Rat))"
  pEC50: "< 4.52"
- given.smiles: "Cc1cccc(NCc2cc3n(n2)[C@H](C)CN(c2ccc(F)cc2)C3=O)c1"
  experimental.system: "rat mGlu5 (Rattus norvegicus (Rat))"
  pEC50: "< 4.52"
- given.smiles: "COc1ccc(N(C)Cc2cc3n(n2)CCN(c2cc(F)cc(F)c2)C3=O)cc1"
  experimental.system: "rat mGlu5 (Rattus norvegicus (Rat))"
  pEC50: "< 4.52"

In plain terms, O=C1c2cc(CNc3cccc(F)c3)nn2CCN1c1ccc(F)cc1 has a documented pEC50 of 5.66

###

target: rat mGlu5 (Rattus norvegicus (Rat), UniProt P31424); assay: mGlu5 Ca2+ flux assay; format: cell-based; settings: ratio of rat mGlu5 EC50 or IC50 to rat mGlu3 IC50
Sequence (P31424 21-1203): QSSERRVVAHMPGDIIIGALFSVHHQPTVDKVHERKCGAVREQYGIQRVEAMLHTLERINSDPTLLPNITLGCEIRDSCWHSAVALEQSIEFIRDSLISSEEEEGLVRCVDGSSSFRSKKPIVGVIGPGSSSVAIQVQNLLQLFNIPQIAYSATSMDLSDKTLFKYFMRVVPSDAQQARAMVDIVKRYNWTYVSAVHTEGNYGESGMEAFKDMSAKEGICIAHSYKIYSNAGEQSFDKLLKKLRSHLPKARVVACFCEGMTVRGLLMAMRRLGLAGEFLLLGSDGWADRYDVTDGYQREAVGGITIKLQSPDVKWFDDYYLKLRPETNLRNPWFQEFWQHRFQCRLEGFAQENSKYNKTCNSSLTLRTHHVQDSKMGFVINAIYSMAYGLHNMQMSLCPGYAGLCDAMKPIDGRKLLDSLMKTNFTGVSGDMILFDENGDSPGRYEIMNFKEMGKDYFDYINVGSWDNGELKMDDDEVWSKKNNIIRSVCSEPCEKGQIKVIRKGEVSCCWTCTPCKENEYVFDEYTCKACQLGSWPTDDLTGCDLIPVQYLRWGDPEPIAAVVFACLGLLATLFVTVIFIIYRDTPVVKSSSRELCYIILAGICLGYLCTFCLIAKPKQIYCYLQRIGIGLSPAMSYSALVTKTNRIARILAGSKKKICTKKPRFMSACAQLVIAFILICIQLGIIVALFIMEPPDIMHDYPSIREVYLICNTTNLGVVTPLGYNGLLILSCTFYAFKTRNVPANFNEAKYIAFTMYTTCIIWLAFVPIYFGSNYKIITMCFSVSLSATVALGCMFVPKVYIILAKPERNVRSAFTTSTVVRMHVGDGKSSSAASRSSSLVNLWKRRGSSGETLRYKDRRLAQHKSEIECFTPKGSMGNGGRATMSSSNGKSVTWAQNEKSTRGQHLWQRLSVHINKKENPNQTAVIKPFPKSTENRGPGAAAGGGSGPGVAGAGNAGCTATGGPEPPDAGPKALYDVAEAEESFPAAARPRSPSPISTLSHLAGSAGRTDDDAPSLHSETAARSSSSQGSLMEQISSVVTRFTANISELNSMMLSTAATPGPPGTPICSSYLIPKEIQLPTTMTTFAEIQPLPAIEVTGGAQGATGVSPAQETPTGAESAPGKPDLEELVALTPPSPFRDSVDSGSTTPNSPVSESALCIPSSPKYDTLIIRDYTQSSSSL
I'd be grateful if you could share measured Fold selectivity (mGlu3 vs. mGlu5) for these entries.

Worked set:
- given.smiles: "COc1ccc(NCc2cc3n(n2)[C@H](C)CN(c2ccc(F)cc2)C3=O)cc1"
  experimental.value: ">10"
- given.smiles: "C[C@H]1CN(c2ccc(F)cc2)C(=O)c2cc(CNc3cccc(F)c3)nn21"
  experimental.value: 0.58
- given.smiles: "COc1ccc(N(C)Cc2cc3n(n2)CCN(c2ccc(F)cn2)C3=O)cc1"
  experimental.value: ">26"
- given.smiles: "COc1ccc(N(C)Cc2cc3n(n2)CCN(c2ccc(F)cc2Cl)C3=O)cc1"
  experimental.value: ">15"
- given.smiles: "O=C1c2cc(CNc3ccc(OC(F)F)cc3F)nn2CCN1c1cc(F)cc(F)c1"
  experimental.value: ">28"

Okay, here is my list. What is Fold selectivity (mGlu3 vs. mGlu5) for each of these?
1. N#Cc1ccc(NCc2cc3n(n2)CCN(c2ccc(F)cc2)C3=O)cc1
2. Cc1ccc(NCc2cc3n(n2)[C@@H](C)CN(c2ccc(F)cc2)C3=O)cc1
3. C[C@@H]1CN(c2ccc(F)cc2)C(=O)c2cc(CNc3cccc(F)c3F)nn21

[">6.2", ">5.7", ">8.1"]

Okay, here is my list. What is Fold selectivity (mGlu3 vs. mGlu5) for each of these?
1. O=C1c2cc(CNc3ncccc3C(F)(F)F)nn2CCN1c1ccc(F)cc1
2. O=C1c2cc(CNc3cccc(C(F)(F)F)n3)nn2CCN1c1ccc(F)cc1

1: >7.8; 2: >4.2
